cytotoxicity at 70.5 h values, listed per item
Assay: Human HepG2 cell viability assay in 384 well format
Format: toxicity, cell-based
Set-up: dose 125 nL, time 70.5 hour; concentration not given beside the values
Conditions: HepG2 cells, read-out: Inhibition
# output: bare number, implied unit %

# count of solved cases: 6
> print(dat)
                                   compound  units  quantitative.result
1  Cc1ccc(C2CN(CCS(=O)(=O)C(C)C)CCO2)c(C)c1 (configuration not stated)      %                -1.77
2           Cc1cc(CN2CCC(c3ccnn3CCO)CC2)no1      %                -15.5
3  CC(NC(=O)Cc1cc2c(cc1Cl)OCCO2)c1ccncn1 (configuration not stated)      %                -2.12
4  Cc1noc([C@@H]2CC[C@@H]3[C@@H](CCN3c3nnc(C)s3)O2)n1      %                -8.18
5   CN(C)C(=O)N1CC[C@@H](O)[C@@H]1Cc1ccccc1      %                -7.54
6  Cc1nn(C)c2ncc(NC(=O)N(C)Cc3cnn(C)c3)cc12      %                  -14

compound `Cc1cnn(CC(=O)N2CCCN(Cc3cnn(C(C)C)c3)CC2)c1` , cytotoxicity at 70.5 h observed: -0.435

compound `CC(C)Cc1nc(-c2ccnc(N3CCNCC3)n2)no1` , cytotoxicity at 70.5 h observed: -7.21

compound Cc1nc(C2CCCN2CC(=O)N2CCCc3ccccc32)no1 (configuration not stated) , cytotoxicity at 70.5 h observed: -6.37

compound Cc1ncsc1C(=O)N1CCCC(n2cncn2)C1 (configuration not stated) , cytotoxicity at 70.5 h observed: -13.3

compound `CCC(=O)NCCNC(=O)c1nn(C)c(C)c1Cl` , cytotoxicity at 70.5 h observed: -11.9

compound Cc1cc(C)n(Cc2cc(C(=O)N3CCCC3c3nccs3)n[nH]2)n1 (configuration not stated) , cytotoxicity at 70.5 h observed: -13.2

---

cytotoxicity at 70.5 h values, listed per item
Assay: Human HepG2 cell viability assay in 384 well format
Format: toxicity, cell-based
Set-up: dose 125 nL, time 70.5 hour; concentration not given beside the values
Settings: HepG2 cells, read-out: Inhibition
# output: bare number, implied unit %

# count of solved cases: 5
> print(dat)
                                   molecule  units  quantitative.result
1   CN(C)C1(CNC(=O)c2c(O)cc(Cl)cc2Cl)CCOCC1      %                -9.63
2   COc1ccc(OC)c(Sc2ncccc2C(=O)N(C)CCC#N)c1      %                 5.96
3  COc1ccc(CN2C[C@@H]3COC[C@@H](CC(=O)N4CCCC4)[C@@H]3C2)cc1      %                -19.9
4   CC(=O)Nc1nc(C(=O)NCc2ccc(OC(C)C)nc2)cs1      %                -5.15
5  O=C(NCc1cccnc1)C1=NOC2(CCN(C3CCOCC3)C2)C1 (stereo not drawn)      %                -11.3

molecule CC1c2ncc(CN3CCN(C)CC3)n2CCN1Cc1cnn(C)c1 (stereo not drawn) , cytotoxicity at 70.5 h observed: 13.6

molecule CC(C)c1cnc(CN(C)C2CCN(CCc3ccncc3)C2)o1 (stereo not drawn) , cytotoxicity at 70.5 h observed: 18.9

molecule CCn1cc(S(=O)(=O)N2CCCC2c2ccc(C)o2)cn1 (stereo not drawn) , cytotoxicity at 70.5 h observed: 2.79

molecule Cc1ccnc(C2CCN(C(=O)CCn3ncc4ccccc43)C2)n1 (stereo not drawn) , cytotoxicity at 70.5 h observed: -8.45

molecule O=C(NC(CC(F)(F)F)c1ccc(Cl)cc1)c1nc(=O)[nH][nH]1 (stereo not drawn) , cytotoxicity at 70.5 h observed: 0.759

molecule CC(C)N1CCCC(C(=O)NCCCc2cnn(C)c2)C1 (stereo not drawn) , cytotoxicity at 70.5 h observed: 17.4

molecule `Cc1ccc(C(=O)N2C[C@@H]3CCN(C(C)C)C[C@@H]3C2)cn1` , cytotoxicity at 70.5 h observed: 0.492

---

Test: Human HepG2 cell viability assay in 384 well format
Format: toxicity, cell-based
Design: dose 125 nL, time 70.5 hour; concentration not given beside the values
Details: HepG2 cells, read-out: Inhibition
reported_metric: cytotoxicity at 70.5 h (%)
# output: bare number, implied unit %

# count of solved cases: 3
> print(dat)
                                   compound  units  quantitative.result
1  CCN(CCc1nc2cc(C)ccc2[nH]1)C(=O)[C@@H](N)Cc1c[nH]cn1      %                -11.4
2  Cc1ccc(-n2nnc(C(=O)NCC(F)(F)F)c2C2CC2)cc1      %                -5.02
3  CC(C)c1nc(C2CCCN2c2cnc3cc(F)c(F)cc3n2)no1 (stereo unspecified)      %                -5.58

compound `N#CC1(C(=O)NCc2ccc(F)cc2)CCCC1` , cytotoxicity at 70.5 h observed: 3.1

compound `Cc1ccc(C)c(OCc2cc(C(=O)N(C)Cc3cnn(C)c3)no2)c1` , cytotoxicity at 70.5 h observed: -8.7

compound `CC(C)c1ccc(NS(=O)(=O)CC2=NC(=O)n3cccc3C2=O)cc1` , cytotoxicity at 70.5 h observed: -18.1

---

Experiment: Human HepG2 cell viability assay in 384 well format
Format: toxicity, cell-based
Set-up: dose 125 nL, time 70.5 hour; concentration not given beside the values
Conditions: HepG2 cells, read-out: Inhibition
reported_metric: cytotoxicity at 70.5 h (%)
# output: bare number, implied unit %

# count of solved cases: 3
> print(dat)
                                   molecule         reported.metric  units  quantitative.result
1  Cc1ncoc1C(=O)N1CCCC(c2ccc3c(N)nn(C)c3n2)C1 (configuration not stated)  cytotoxicity at 70.5 h      %                -4.28
2  CCN1CCCC(C)(C(=O)NCc2nncn2CCc2ccccc2)C1 (configuration not stated)  cytotoxicity at 70.5 h      %                -8.53
3  COCCN1CCC2(CCC1=O)CN(C1CCOCC1)CCN2C (configuration not stated)  cytotoxicity at 70.5 h      %                -10.7

molecule `O=C(c1ccoc1)N1CC[C@H]2OCC[C@@]2(COc2ncccc2F)C1` , cytotoxicity at 70.5 h observed: -9.01

molecule `Cc1ccc(N2N=C(C(=O)O)S(=O)(=O)c3cccnc32)cc1` , cytotoxicity at 70.5 h observed: -8.77

molecule Cc1nn(C)c2nc(N3CCNC(=O)C3C(C)C)sc12 (configuration not stated) , cytotoxicity at 70.5 h observed: 10.4

molecule `CN(C)c1cncc(-c2ccnc3c2ccn3C)n1` , cytotoxicity at 70.5 h observed: -0.942

molecule `CCn1cc(CN2CCCn3nc(CCC(=O)NCCO)cc3C2)cn1` , cytotoxicity at 70.5 h observed: -3.88

molecule `O=C(CCc1ccsc1)N1CCC(C(=O)O)(c2ccccc2)CC1` , cytotoxicity at 70.5 h observed: -0.12

molecule CC(=O)N1CCN(Cc2ccccn2)CC2(CC(=O)N(C)C2)C1 (configuration not stated) , cytotoxicity at 70.5 h observed: 0.971

molecule `Cc1ccc(C)c2c(O)cc(CNCc3ccc(S(N)(=O)=O)cc3)nc12` , cytotoxicity at 70.5 h observed: -4.39

molecule CCN(Cc1cccnc1)CC1(C)Cc2c(N)nc(N)nc2O1 (configuration not stated) , cytotoxicity at 70.5 h observed: -1.96

molecule CCC(NC(=O)C1CC1)c1ccccc1OCC(=O)N1CCCC1 (configuration not stated) , cytotoxicity at 70.5 h observed: -6.4

molecule `CCCc1nncn1-c1cc(OC)ccc1OC` , cytotoxicity at 70.5 h observed: -1.39

molecule `O=C(c1ccc(S(=O)(=O)NCC(F)F)cc1)N1CC[C@H]2CNC[C@H]21` , cytotoxicity at 70.5 h observed: 0.673

molecule `Cc1ccnc(N2CCC(NCCOc3ccccc3)CC2)n1` , cytotoxicity at 70.5 h observed: -4.28

molecule `CCc1noc(CN(C)C(=O)COc2cc(Cl)cc(Cl)c2)n1` , cytotoxicity at 70.5 h observed: 1.61

---

Assay: Human HepG2 cell viability assay in 384 well format
Type: toxicity, cell-based
Parameters: dose 125 nL, time 70.5 hour; concentration not given beside the values
Conditions: HepG2 cells, read-out: Inhibition
cytotoxicity at 70.5 h values, listed per item
# output: bare number, implied unit %

# count of solved cases: 3
> print(dat)
                                   molecule  quantitative.result
1  CN(C(=O)Cn1nc(-c2ccc(F)cc2)ccc1=O)C1CCS(=O)(=O)C1 (stereo unspecified)               -0.171
2  Cc1ccc(C)c2c(C)c(C(=O)NCC[S+](C)[O-])[nH]c12 (stereo unspecified)                -4.15
3  O[C@H]1[C@H](NCCc2cnccn2)c2ccccc2C12CCNCC2                -3.75

molecule `CCn1cc(CN2CCC(CCC(=O)Nc3ccccc3Cl)CC2)cn1` , cytotoxicity at 70.5 h observed: 12.4

molecule `CC(C)(C)c1noc(-c2ccnc(-n3cnc(C(=O)O)c3)c2)n1` , cytotoxicity at 70.5 h observed: -4.5

molecule CCc1nc2n(n1)CC(NCc1ccccc1OCC(=O)NC)CC2 (stereo unspecified) , cytotoxicity at 70.5 h observed: -2.9

Source of measurements: ChEMBL document CHEMBL3507680
